Recorded IC50 for the following compounds
- subject-of-test: human DAT (Homo sapiens)
- Sequence (Q01959 whole entry): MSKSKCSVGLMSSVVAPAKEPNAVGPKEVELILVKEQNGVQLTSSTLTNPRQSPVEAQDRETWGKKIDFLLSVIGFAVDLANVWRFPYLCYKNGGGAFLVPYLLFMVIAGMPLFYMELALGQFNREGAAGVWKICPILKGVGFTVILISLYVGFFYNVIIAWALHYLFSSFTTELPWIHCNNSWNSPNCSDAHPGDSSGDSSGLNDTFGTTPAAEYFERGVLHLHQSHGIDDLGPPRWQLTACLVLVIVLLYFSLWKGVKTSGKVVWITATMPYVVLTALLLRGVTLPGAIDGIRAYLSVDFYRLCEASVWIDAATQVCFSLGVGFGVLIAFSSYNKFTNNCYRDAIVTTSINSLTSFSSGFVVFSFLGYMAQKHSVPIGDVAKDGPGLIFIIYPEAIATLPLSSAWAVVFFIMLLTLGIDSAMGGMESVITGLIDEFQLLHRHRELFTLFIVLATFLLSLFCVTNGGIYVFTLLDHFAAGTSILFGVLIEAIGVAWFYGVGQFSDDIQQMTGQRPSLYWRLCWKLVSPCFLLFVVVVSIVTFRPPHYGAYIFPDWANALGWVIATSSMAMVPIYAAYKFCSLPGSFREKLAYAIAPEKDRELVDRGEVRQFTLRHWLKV
- protocol-text: Uptake inhibition assay, DAT
- condition-details: HEK293 cells expressing human DAT, 0.05 µM [3H]MPP+, given as a range

compound | IC50
c1ccc([C@H]2CN3CCSC3=N2)cc1 | 81 to 316 µM

Under human DAT (Homo sapiens), report IC50 for CCOC(=O)c1ccc(N)cc1 [benzocaine, Ethyl 4-Aminobenzoate] 17 to 27 µM

State, for human DAT (Homo sapiens), measured IC50 of the compound listed here: `CCN(CC)CCOC(=O)c1ccc(N)cc1` 15 to 29 µM

* * *

- subject-of-test: human NET (Homo sapiens)
- Construct: expressed in transfected cells
- Sequence (P23975 whole entry): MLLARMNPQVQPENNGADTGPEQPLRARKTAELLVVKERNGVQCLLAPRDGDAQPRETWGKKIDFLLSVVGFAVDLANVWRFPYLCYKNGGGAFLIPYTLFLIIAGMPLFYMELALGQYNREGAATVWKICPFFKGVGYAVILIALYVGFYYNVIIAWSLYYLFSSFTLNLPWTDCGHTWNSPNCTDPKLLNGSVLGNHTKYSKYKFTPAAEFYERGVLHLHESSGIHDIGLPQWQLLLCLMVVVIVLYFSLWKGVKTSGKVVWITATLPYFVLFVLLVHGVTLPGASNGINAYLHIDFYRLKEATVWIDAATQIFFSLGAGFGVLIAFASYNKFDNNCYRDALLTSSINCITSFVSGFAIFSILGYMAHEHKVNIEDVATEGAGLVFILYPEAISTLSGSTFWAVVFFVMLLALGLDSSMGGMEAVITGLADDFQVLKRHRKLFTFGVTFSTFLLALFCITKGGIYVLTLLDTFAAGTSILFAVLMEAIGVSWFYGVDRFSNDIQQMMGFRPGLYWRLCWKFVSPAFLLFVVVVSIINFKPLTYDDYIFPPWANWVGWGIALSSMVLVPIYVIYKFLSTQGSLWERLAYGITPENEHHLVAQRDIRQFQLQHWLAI
- protocol-text: cell-based
- Type: cell-based
pIC50: −log10 of the molar value.
observation-type: pIC50

Query pIC50 for `c1ccc([C@H]2CN3CCSC3=N2)cc1` 3.97 to 4.22

* * *

- subject-of-test: human OCT2 (Homo sapiens, UniProt O15244)
- Sequence (O15244 whole entry): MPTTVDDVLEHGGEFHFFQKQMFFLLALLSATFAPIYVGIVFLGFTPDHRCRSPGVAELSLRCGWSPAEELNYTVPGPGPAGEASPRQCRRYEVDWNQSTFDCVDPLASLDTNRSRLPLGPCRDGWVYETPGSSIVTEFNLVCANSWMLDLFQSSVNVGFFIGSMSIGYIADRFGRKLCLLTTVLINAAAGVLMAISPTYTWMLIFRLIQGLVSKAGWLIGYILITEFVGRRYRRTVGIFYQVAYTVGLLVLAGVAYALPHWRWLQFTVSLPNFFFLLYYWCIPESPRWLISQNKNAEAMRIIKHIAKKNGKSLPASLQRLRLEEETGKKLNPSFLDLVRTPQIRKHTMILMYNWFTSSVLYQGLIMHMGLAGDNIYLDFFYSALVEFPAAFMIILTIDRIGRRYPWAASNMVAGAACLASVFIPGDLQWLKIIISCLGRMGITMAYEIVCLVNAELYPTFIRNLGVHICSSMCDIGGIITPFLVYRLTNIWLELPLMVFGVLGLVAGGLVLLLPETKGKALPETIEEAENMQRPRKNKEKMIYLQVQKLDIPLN
- protocol-text: cell-based
- Description: Cells were cultured in Dulbecco’s modified Eagle’s medium (DMEM) supplemented with 10% fetal bovine serum and 250 μg/mL geneticin to maintain selection pressure. HEK293 cells heterologously expressing the respective transporters were seeded onto poly-D-lysine (PDL)-coated 96-well plates at a density of ∼36,000 cells per well, 1 day before experiments. […] Uptake is expressed as a percentage of control (uptake in the absence of test compound). […]
pIC50: −log10 of the molar value.
observation-type: pIC50

chemical-string | observation-type | meas-value
CCN(CC)CCOC(=O)c1ccc(N)cc1 | pIC50 | 4.62 to 5.00

Please supply the value of reported pIC50 for the item `COC(=O)[C@H]1[C@@H](OC(=O)c2ccccc2)C[C@@H]2CC[C@H]1N2C` 4.38 to 4.82
